# credit: patent US8063042B2

- target_of_assay: human chemokine receptor 2 isoform B (Homo sapiens, UniProt P41597)
- Sequence (P41597 1-360 isoform P41597-2): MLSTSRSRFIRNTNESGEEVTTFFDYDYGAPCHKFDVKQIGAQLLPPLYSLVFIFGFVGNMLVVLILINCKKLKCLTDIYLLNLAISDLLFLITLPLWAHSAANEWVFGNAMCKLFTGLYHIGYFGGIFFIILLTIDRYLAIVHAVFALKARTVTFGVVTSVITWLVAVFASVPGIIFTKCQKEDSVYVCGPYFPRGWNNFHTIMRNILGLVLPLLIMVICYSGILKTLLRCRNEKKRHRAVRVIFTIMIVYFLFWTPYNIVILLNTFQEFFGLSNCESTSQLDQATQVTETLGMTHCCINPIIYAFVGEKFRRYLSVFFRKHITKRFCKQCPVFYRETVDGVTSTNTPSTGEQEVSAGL
- protocol_summary: Calcium mobilization assay
- conditions: Ca mobilisation assay for CCR2; CHOK1-CCR2B-A5 cells; antagonist activity against 20 nM MCP-1
metric: IC50 (nM)

Solved cases (3 shown):
{"compound": "O=C(/C=C/c1ccc(Cl)c(Cl)c1)N1CCN(CCCN2CCCCC2)S(=O)(=O)C1 [Example 34]", "target_of_assay": "human chemokine receptor 2 isoform B (Homo sapiens, UniProt P41597)", "unit_text": "nM", "IC50": 202}
{"compound": "CC1C(=O)N(CCCN2CCCC2)CCN1C(=O)/C=C/c1ccc(Cl)c(Cl)c1 (centres unmarked) [Example 15]", "target_of_assay": "human chemokine receptor 2 isoform B (Homo sapiens, UniProt P41597)", "unit_text": "nM", "IC50": 76.5}
{"compound": "O=C(/C=C/c1ccc(Cl)c(Cl)c1)N1CCN(CCCN2CCC(CO)C2)C(=O)C1 (centres unmarked) [Example 14]", "target_of_assay": "human chemokine receptor 2 isoform B (Homo sapiens, UniProt P41597)", "unit_text": "nM", "IC50": 307}

P: O=C(/C=C/c1ccc(Cl)c(Cl)c1)N1CCN(CCCN2CCC(O)CC2)C(=O)C1 [Example 11]
Q: CC1C(=O)N(CCCN2CCC3(CC3)[C@H](O)C2)CCN1C(=O)/C=C/c1ccc(Cl)c(F)c1 (some centres unmarked) [Example 39]
### Prompt # query: argmin of IC50 over P and Q Refer to your chosen item by its label in the answer.
### Response Q
